Give EC50 for every item shown.
System: HIV-1 reporter virus, Q148H/G140S (QHGS) integrase
Test: Luciferase reporter virus infectivity assay in 293T cells
Format: cell-based
Settings: Human immunodeficiency virus 1, HEK-293T, 48 h, read-out: Luciferase assay EC50, QHGS

Lab book: EC50 of O=c1c(O)c(-c2ncc(Cc3ccc(F)cc3)[nH]2)nc2c(Br)cc(N3CCOCC3)cn12 noted as 100 to 1000 nM

Lab book: EC50 of O=c1c(O)c(-c2ncc(Cc3ccc(F)cc3)[nH]2)nc2ccc(N3CCOCC3)cn12 noted as 100 to 1000 nM

Lab book: EC50 of O=C1CCCN1c1cc(N2CCOCC2)cn2c(=O)c(O)c(-c3ncc(Cc4ccc(F)cc4)s3)nc12 noted as 100 to 1000 nM

Lab book: EC50 of CN(c1cc(N2CCOCC2)cn2c(=O)c(O)c(-c3ncc(Cc4ccc(F)cc4)[nH]3)nc12)S(C)(=O)=O noted as 100 to 1000 nM

Lab book: EC50 of CN1CCN(c2cc(N3CCOCC3)cn3c(=O)c(O)c(-c4ncc(Cc5ccc(F)cc5)s4)nc23)C1=O noted as 1 to 100 nM

Lab book: EC50 of CC(C)N1CCN(c2cc(N3CCOCC3)cn3c(=O)c(O)c(-c4ncc(Cc5ccc(F)cc5)s4)nc23)C1=O noted as 1 to 100 nM

Lab book: EC50 of CN1CCN(c2cc(N3CCOCC3)cn3c(=O)c(O)c(-c4ncc(Cc5ccc(F)cc5)[nH]4)nc23)S1(=O)=O noted as 1 to 100 nM

Lab book: EC50 of CN1CCN(c2cc(N3CCOCC3)cn3c(=O)c(O)c(-c4ncc(Cc5ccc(F)c(Cl)c5)[nH]4)nc23)C1=O noted as 100 to 1000 nM

Lab book: EC50 of O=c1c(O)c(-c2ncc(Cc3ccc(F)cc3)s2)nc2ccc(N3CCOCC3)cn12 noted as > 1000 nM

Lab book: EC50 of O=c1c(O)c(-c2ncc(Cc3ccc(F)cc3)s2)nc2c(N3CCCS3(=O)=O)cc(N3CCOCC3)cn12 noted as 100 to 1000 nM

Lab book: EC50 of CN1CCN(c2cc(N(C)C)cn3c(=O)c(O)c(-c4ncc(Cc5ccc(F)cc5)[nH]4)nc23)C1=O noted as 100 to 1000 nM

Lab book: EC50 of O=C1OCCN1c1cc(N2CCOCC2)cn2c(=O)c(O)c(-c3ncc(Cc4ccc(F)cc4)s3)nc12 noted as 1 to 100 nM

Lab book: EC50 of CN1CCN(c2cc(N(C)C)cn3c(=O)c(O)c(-c4ncc(Cc5ccc(F)cc5)s4)nc23)C1=O noted as 1 to 100 nM

Lab book: EC50 of CN1CCN(c2cc(N3CCOCC3)cn3c(=O)c(O)c(-c4ncc(Cc5ccc(F)cc5)[nH]4)nc23)C1=O noted as 100 to 1000 nM

Lab book: EC50 of O=C1CCCN1c1cc(N2CCOCC2)cn2c(=O)c(O)c(-c3ncc(Cc4ccc(F)cc4)[nH]3)nc12 noted as 100 to 1000 nM

Lab book: EC50 of CC(=O)c1cc(N2CCOCC2)cn2c(=O)c(O)c(-c3ncc(Cc4ccc(F)cc4)s3)nc12 noted as 100 to 1000 nM

Lab book: EC50 of CN1CCN(c2cc(N3CCOCC3)cn3c(=O)c(O)c(-c4ncc(Cc5ccc(F)c(F)c5)[nH]4)nc23)C1=O noted as 100 to 1000 nM

Value source: patent US8563562B2
